Origin of measurements: patent US10543212B2

target: Full-length, GST-tagged, human CaMKIIδ (Homo sapiens, UniProt Q13557); construct: Full-Length, Glutathione-S-Transferase(GST)-Tagged, Human CaMKIIδ was purchased from Carna Biosciences; purchased Carna Biosciences 02-111; test: CaMKIIδ binding assay (TR-FRET with BODIPY-labeled probe ligand); settings: CaMKIIδ binding assay, results of Table 2
Sequence (Q13557 1-478 isoform Q13557-12): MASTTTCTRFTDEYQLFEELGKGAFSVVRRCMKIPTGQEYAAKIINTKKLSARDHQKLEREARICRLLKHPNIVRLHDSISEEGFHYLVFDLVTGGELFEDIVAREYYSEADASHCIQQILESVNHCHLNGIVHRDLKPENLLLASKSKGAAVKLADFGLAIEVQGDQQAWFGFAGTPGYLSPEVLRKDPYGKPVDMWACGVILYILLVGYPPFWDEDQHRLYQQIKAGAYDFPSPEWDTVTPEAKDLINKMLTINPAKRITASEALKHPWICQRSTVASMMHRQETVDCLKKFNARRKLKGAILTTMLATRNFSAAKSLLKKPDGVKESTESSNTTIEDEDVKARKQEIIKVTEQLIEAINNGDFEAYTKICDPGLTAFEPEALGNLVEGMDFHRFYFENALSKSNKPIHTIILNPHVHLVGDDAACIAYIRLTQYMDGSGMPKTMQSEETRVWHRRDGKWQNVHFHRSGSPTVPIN
pIC50: −log10 of the molar value.
value kind: pIC50

{"columns": ["molecule", "value kind", "test result"],
 "data": [
  ["COc1cnc(C2CCC(F)(F)CC2)cc1Nc1ncc(-c2ccc(Cl)c(O[C@@H](C)Cn3cnnn3)c2)cn1", "pIC50", "≤ 7.00"],
  ["C[C@@H](Cn1cnnn1)Oc1cc(-c2cnc(Nc3cc4c(cc3Cl)CCN(C3COC3)CC4)nc2)ccc1C#N", "pIC50", "> 8.00"],
  ["C[C@@H](Cn1cnnn1)Oc1cc(-c2cnc(Nc3cc(C4CCN(C5COC5)CC4)c(F)cc3F)nc2)ccc1Cl", "pIC50", "7.00 to 8.00"],
  ["C[C@@H](Cn1cnnn1)Oc1cc(-c2cnc(Nc3cn(C4CCN(C(=O)OC(C)(C)C)CC4)nc3C(F)(F)F)nc2)ccc1Cl", "pIC50", "7.00 to 8.00"],
  ["COc1ccc(N2CCCC(N3CCOCC3)C2)cc1Nc1ncc(-c2ccc(Cl)c(O[C@@H](C)Cn3cnnn3)c2)cn1 (stereo partly shown)", "pIC50", "7.00 to 8.00"],
  ["COc1ccc(C(=O)N2CCCN(C3COC3)CC2)cc1Nc1ncc(-c2ccc(Cl)c(O[C@@H](C)Cn3cnnn3)c2)cn1", "pIC50", "> 8.00"],
  ["COc1cc2c(cc1Nc1ncc(-c3ccc(Cl)c(O[C@@H](C)Cn4cnnn4)c3)cn1)CN(CC(C)=O)CC2", "pIC50", "> 8.00"]
]}
